# Lookup of reported A: sugar transportation activity (EC50) keyed by entry
- System: adipose cells of rats
- METHOD SUMMARY: Evaluation of the sugar transportation activity (2-[14C(U)]-deoxy-D-glucose incorporation)
- Assay type: cell-based, Wistar rats
- MEASUREMENT SETUP: concentration with reinforcing effect of 50% of that of insulin (100 nM) = 100%; rat adipose cells, 30 min pre-culture at 37° C., 5 min uptake
Give the value, in units of µg/mL, as a plain number.

Sample answers from the record:
[[record]]
cpd_smiles = "CCCC(=O)N1[C@@H]2CCCC[C@H]2NC2=C(C(=O)NC2)[C@H]1c1ccccc1OCC"
tgt = "adipose cells of rats"
property_measured = "A: sugar transportation activity (EC50)"
recorded_number = 1.3

[[record]]
cpd_smiles = "CC(=O)N1[C@@H]2CCCC[C@H]2NC2=C(C(=O)NC2)[C@H]1c1ccccc1N"
tgt = "adipose cells of rats"
property_measured = "A: sugar transportation activity (EC50)"
recorded_number = 12

[[record]]
cpd_smiles = "Cc1ccccc1[C@@H]1C2=C(CNC2=O)N(C)[C@@H]2CCCC[C@H]2N1C(=O)CO"
tgt = "adipose cells of rats"
property_measured = "A: sugar transportation activity (EC50)"
recorded_number = 1.5


stdin: Given the molecule `COC(=O)CC(=O)N1[C@@H]2CCCC[C@H]2NC2=C(C(=O)NC2)[C@H]1c1ccccc1Br` , write its reported A: sugar transportation activity (EC50).
stdout: 1.5

###

# Lookup of reported A: sugar transportation activity (EC50) keyed by entry
- Tested on: adipose cells of rats
- METHOD SUMMARY: Evaluation of the sugar transportation activity (2-[14C(U)]-deoxy-D-glucose incorporation)
- Format: cell-based, Wistar rats
- MEASUREMENT SETUP: concentration with reinforcing effect of 50% of that of insulin (100 nM) = 100%; rat adipose cells, 30 min pre-culture at 37° C., 5 min uptake
Give the value, in units of µg/mL, as a plain number.

Sample answers from the record:
[[record]]
compound = "CCCNC(=O)N1[C@@H]2CCCC[C@H]2NC2=C(C(=O)NC2)[C@H]1c1ccccc1OC [Compound 42]"
value_unit = "µg/mL"
recorded_number = 7

[[record]]
compound = "CCOCC(=O)N1[C@@H]2CCCC[C@H]2NC2=C(C(=O)NC2)[C@H]1c1ccccc1OC [Compound 11]"
value_unit = "µg/mL"
recorded_number = 2.2


stdin: Look up and report measured A: sugar transportation activity (EC50) (adipose cells of rats) for the following compound: COc1ccccc1[C@@H]1C2=C(CNC2=O)N[C@@H]2CCCC[C@H]2N1C(=O)c1ccncc1 [Compound 35]
stdout: 18

###

- Test system: adipose cells of rats
- METHOD SUMMARY: Evaluation of the sugar transportation activity (2-[14C(U)]-deoxy-D-glucose incorporation)
- Type: cell-based, Wistar rats
- MEASUREMENT SETUP: concentration with reinforcing effect of 50% of that of insulin (100 nM) = 100%; rat adipose cells, 30 min pre-culture at 37° C., 5 min uptake
PROPERTY MEASURED: A: sugar transportation activity (EC50) (µg/mL)
Give the value, in units of µg/mL, as a plain number.

[[record]]
compound = "CCOc1ccccc1[C@@H]1C2=C(CNC2=O)N[C@@H]2CCCC[C@H]2N1C(=O)COC [Compound 52]"
value_unit = "µg/mL"
recorded_number = 3.6

[[record]]
compound = "COc1ccccc1[C@@H]1C2=C(CNC2=O)N[C@@H]2CCCC[C@H]2N1C(=O)Oc1ccccc1 [Compound 40]"
value_unit = "µg/mL"
recorded_number = 11


stdin: Look up and report measured A: sugar transportation activity (EC50) (adipose cells of rats) for the following compound: COc1ccccc1[C@@H]1C2=C(CNC2=O)N[C@@H]2CCCC[C@H]2N1C(=O)CCc1ccc(F)c(F)c1 [Compound 27]
stdout: 4.2

stdin: Look up and report measured A: sugar transportation activity (EC50) (adipose cells of rats) for the following compound: COc1ccccc1[C@@H]1C2=C(CNC2=O)N[C@@H]2CCCC[C@H]2N1C(=O)CC(F)(F)F [Compound 6]
stdout: 0.47

Taken from patent US7807663B2.
